All figures here come from patent US4968705A.

Reported LD50 values for the following compounds.
# Assay Overview: Toxicity LD50 in mouse
# Type: in vivo
# Experimental Setup: in vivo, IP

O=C1Cc2ccccc2N1CCCN1CCC(C(c2ccc(F)cc2)c2ccc(F)cc2)CC1 = ~200 mg/kg

Now for another entry.
Input line: Name the recorded LD50 of the item O=C1Cc2ccccc2N1CCN1CCC(OC(c2ccccc2)c2ccccc2)CC1 in your answer.
Output line: ~200 mg/kg

---

# Assay Overview: Toxicity LD50 in mouse
# Format: in vivo
# Experimental Setup: in vivo, PO
Experimental Readout: LD50

# annotated cases, reported LD50 shown
O=C1c2ccccc2CN1CCCN1CCC(OC(c2ccccc2)c2ccccc2)CC1 = > 800 mg/kg
O=C1Cc2cc(F)ccc2N1CCCN1CCC(OC(c2ccccc2)c2ccccc2)CC1 = > 800 mg/kg
O=C1c2ccc(F)cc2CN1CCCN1CCC(OC(c2ccccc2)c2ccccc2)CC1 = > 800 mg/kg
O=C1c2ccc(F)cc2CN1CCN1CCC(OC(c2ccccc2)c2ccccc2)CC1 = > 800 mg/kg
CC1(C)C(=O)N(CCN2CCC(OC(c3ccccc3)c3ccccc3)CC2)c2ccccc21 = > 800 mg/kg

Now for another entry.
Input line: Name the recorded LD50 of the item COc1cc2c(cc1OC)C(=O)N(CCCN1CCC(OC(c3ccccc3)c3ccccc3)CC1)C2 in your answer.
Output line: 800 mg/kg
